test: In vivo toxicological study in rats: haematology; parameters: species or system rats of the Wistar strain; settings: male, 30 mg/kg oral daily 7 d
QUANTITY KIND: WBC

Would you please look over these solved cases?
[ask] Provide one value: measured WBC of `N#Cc1c(NC(=O)c2cccc3ccccc23)sc2c1CCN(CC(=O)Nc1cccc(Br)c1)C2`
[reply] 7.7 10^9/l

[ask] Provide one value: measured WBC of `N#Cc1c(NC(=O)c2cccc3ccccc23)sc2c1CCN(C(=O)Nc1ccccc1OC(F)(F)F)C2`
[reply] 3.9 10^9/l

Further cases:
[ask] Provide one value: measured WBC of `COc1ccc(C(=O)Nc2sc3c(c2C#N)CCCCC3)cc1OC`
[reply] 8.6 10^9/l

[ask] Provide one value: measured WBC of `COc1ccccc1NC(=O)N1CCc2c(sc(NC(=O)c3cccc4ccccc34)c2C#N)C1`
[reply] 7.7 10^9/l

====

experiment: In vivo toxicological study in rats: haematology; design: species or system rats of the Wistar strain; conditions: female, 300 mg/kg oral daily 7 d
The following compounds are listed with their measured HGB values.
Numeric answer only, unit g/dL assumed.

Would you please look over these solved cases?
[ask] Provide one value: measured HGB of `COc1ccc(C(=O)Nc2sc3c(c2C#N)CCCCC3)cc1OC`
[reply] 14.7

[ask] Provide one value: measured HGB of `COc1ccccc1NC(=O)N1CCc2c(sc(NC(=O)c3cccc4ccccc34)c2C#N)C1`
[reply] 14.7

[ask] Provide one value: measured HGB of `N#Cc1c(NC(=O)c2cccc3ccccc23)sc2c1CCN(CC(=O)Nc1cccc(Br)c1)C2`
[reply] 14.4

Further cases:
[ask] Provide one value: measured HGB of `N#Cc1c(NC(=O)c2cccc3ccccc23)sc2c1CCN(C(=O)Nc1ccccc1OC(F)(F)F)C2`
[reply] 14.5

====

The following compounds are listed with their measured MCHC values.
experiment: In vivo toxicological study in rats: haematology; design: species or system rats of the Wistar strain; conditions: female, 30 mg/kg oral daily 7 d
Numeric answer only, unit g/dL assumed.

Would you please look over these solved cases?
[ask] Provide one value: measured MCHC of `N#Cc1c(NC(=O)c2cccc3ccccc23)sc2c1CCN(C(=O)Nc1ccccc1OC(F)(F)F)C2`
[reply] 35.7

[ask] Provide one value: measured MCHC of `N#Cc1c(NC(=O)c2cccc3ccccc23)sc2c1CCN(CC(=O)Nc1cccc(Br)c1)C2`
[reply] 35.6

[ask] Provide one value: measured MCHC of `COc1ccccc1NC(=O)N1CCc2c(sc(NC(=O)c3cccc4ccccc34)c2C#N)C1`
[reply] 34.1

Kindly consider the entry below.
[ask] Provide one value: measured MCHC of `COc1ccc(C(=O)Nc2sc3c(c2C#N)CCCCC3)cc1OC`
[reply] 34.1

====

experiment: In vivo toxicological study in rats: clinical observations and body weight; details: 300 mg/kg oral administration
QUANTITY KIND: tolerability (adverse clinical signs, body weight, clinical pathology parameters)

[ask] Provide one value: measured tolerability (adverse clinical signs, body weight, clinical pathology parameters) of N#Cc1c(NC(=O)c2cccc3ccccc23)sc2c1CCN(CC(=O)Nc1cccc(Br)c1)C2 [PKL-B171]
[reply] well tolerated

[ask] Provide one value: measured tolerability (adverse clinical signs, body weight, clinical pathology parameters) of COc1ccc(C(=O)Nc2sc3c(c2C#N)CCCCC3)cc1OC [PKL-A135]
[reply] well tolerated

[ask] Provide one value: measured tolerability (adverse clinical signs, body weight, clinical pathology parameters) of COc1ccccc1NC(=O)N1CCc2c(sc(NC(=O)c3cccc4ccccc34)c2C#N)C1 [PKL-A152]
[reply] well tolerated

[ask] Provide one value: measured tolerability (adverse clinical signs, body weight, clinical pathology parameters) of N#Cc1c(NC(=O)c2cccc3ccccc23)sc2c1CCN(C(=O)Nc1ccccc1OC(F)(F)F)C2 [PKL-A159]
[reply] well tolerated

====

assay: In vivo toxicological study in rats: haematology; parameters: species or system rats of the Wistar strain; details: male, 30 mg/kg oral daily 7 d
The following compounds are listed with their measured RDW % values.
Numeric answer only, unit % assumed.

Would you please look over these solved cases?
[ask] Provide one value: measured RDW % of N#Cc1c(NC(=O)c2cccc3ccccc23)sc2c1CCN(CC(=O)Nc1cccc(Br)c1)C2 [PKL-B171]
[reply] 14.8

[ask] Provide one value: measured RDW % of COc1ccccc1NC(=O)N1CCc2c(sc(NC(=O)c3cccc4ccccc34)c2C#N)C1 [PKL-A152]
[reply] 14.2

Further cases:
[ask] Provide one value: measured RDW % of COc1ccc(C(=O)Nc2sc3c(c2C#N)CCCCC3)cc1OC [PKL-A135]
[reply] 14.1

[ask] Provide one value: measured RDW % of N#Cc1c(NC(=O)c2cccc3ccccc23)sc2c1CCN(C(=O)Nc1ccccc1OC(F)(F)F)C2 [PKL-A159]
[reply] 15.1

====

assay: In vivo toxicological study in rats: haematology; design: species or system rats of the Wistar strain; details: female, 300 mg/kg oral daily 7 d
The following compounds are listed with their measured RDW % values.
Numeric answer only, unit % assumed.

Would you please look over these solved cases?
[ask] Provide one value: measured RDW % of `N#Cc1c(NC(=O)c2cccc3ccccc23)sc2c1CCN(CC(=O)Nc1cccc(Br)c1)C2`
[reply] 14.2

[ask] Provide one value: measured RDW % of `N#Cc1c(NC(=O)c2cccc3ccccc23)sc2c1CCN(C(=O)Nc1ccccc1OC(F)(F)F)C2`
[reply] 14.4

[ask] Provide one value: measured RDW % of `COc1ccc(C(=O)Nc2sc3c(c2C#N)CCCCC3)cc1OC`
[reply] 13.8

Kindly consider the entry below.
[ask] Provide one value: measured RDW % of `COc1ccccc1NC(=O)N1CCc2c(sc(NC(=O)c3cccc4ccccc34)c2C#N)C1`
[reply] 14.1

====

assay: In vivo toxicological study in rats: haematology; set-up: species or system rats of the Wistar strain; details: female, 100 mg/kg oral daily 7 d
QUANTITY KIND: MCHC (g/dL)
Numeric answer only, unit g/dL assumed.

[ask] Provide one value: measured MCHC of COc1ccc(C(=O)Nc2sc3c(c2C#N)CCCCC3)cc1OC [PKL-A135]
[reply] 34.1

[ask] Provide one value: measured MCHC of N#Cc1c(NC(=O)c2cccc3ccccc23)sc2c1CCN(C(=O)Nc1ccccc1OC(F)(F)F)C2 [PKL-A159]
[reply] 35.2

[ask] Provide one value: measured MCHC of COc1ccccc1NC(=O)N1CCc2c(sc(NC(=O)c3cccc4ccccc34)c2C#N)C1 [PKL-A152]
[reply] 34

Kindly consider the entry below.
[ask] Provide one value: measured MCHC of N#Cc1c(NC(=O)c2cccc3ccccc23)sc2c1CCN(CC(=O)Nc1cccc(Br)c1)C2 [PKL-B171]
[reply] 35.4

====

test: In vivo toxicological study in rats: haematology; parameters: species or system rats of the Wistar strain; settings: male, 300 mg/kg oral daily 7 d
The following compounds are listed with their measured WBC values.

Would you please look over these solved cases?
[ask] Provide one value: measured WBC of N#Cc1c(NC(=O)c2cccc3ccccc23)sc2c1CCN(C(=O)Nc1ccccc1OC(F)(F)F)C2 [PKL-A159]
[reply] 5.7 10^9/l

[ask] Provide one value: measured WBC of COc1ccc(C(=O)Nc2sc3c(c2C#N)CCCCC3)cc1OC [PKL-A135]
[reply] 7.5 10^9/l

[ask] Provide one value: measured WBC of COc1ccccc1NC(=O)N1CCc2c(sc(NC(=O)c3cccc4ccccc34)c2C#N)C1 [PKL-A152]
[reply] 7.2 10^9/l

Kindly consider the entry below.
[ask] Provide one value: measured WBC of N#Cc1c(NC(=O)c2cccc3ccccc23)sc2c1CCN(CC(=O)Nc1cccc(Br)c1)C2 [PKL-B171]
[reply] 8.6 10^9/l

====

assay: In vivo toxicological study in rats: haematology; design: species or system rats of the Wistar strain; conditions: male, 30 mg/kg oral daily 7 d
QUANTITY KIND: PLT

[ask] Provide one value: measured PLT of `COc1ccc(C(=O)Nc2sc3c(c2C#N)CCCCC3)cc1OC`
[reply] 841 10^9/l

[ask] Provide one value: measured PLT of `COc1ccccc1NC(=O)N1CCc2c(sc(NC(=O)c3cccc4ccccc34)c2C#N)C1`
[reply] 922 10^9/l

[ask] Provide one value: measured PLT of `N#Cc1c(NC(=O)c2cccc3ccccc23)sc2c1CCN(CC(=O)Nc1cccc(Br)c1)C2`
[reply] 991 10^9/l

Kindly consider the entry below.
[ask] Provide one value: measured PLT of `N#Cc1c(NC(=O)c2cccc3ccccc23)sc2c1CCN(C(=O)Nc1ccccc1OC(F)(F)F)C2`
[reply] 1117 10^9/l

====

assay: In vivo toxicological study in rats: haematology; design: species or system rats of the Wistar strain; conditions: female, 300 mg/kg oral daily 7 d
QUANTITY KIND: HCT (%)
Numeric answer only, unit % assumed.

Would you please look over these solved cases?
[ask] Provide one value: measured HCT of `COc1ccc(C(=O)Nc2sc3c(c2C#N)CCCCC3)cc1OC`
[reply] 42.8

[ask] Provide one value: measured HCT of `COc1ccccc1NC(=O)N1CCc2c(sc(NC(=O)c3cccc4ccccc34)c2C#N)C1`
[reply] 42.9

[ask] Provide one value: measured HCT of `N#Cc1c(NC(=O)c2cccc3ccccc23)sc2c1CCN(C(=O)Nc1ccccc1OC(F)(F)F)C2`
[reply] 41.1

Kindly consider the entry below.
[ask] Provide one value: measured HCT of `N#Cc1c(NC(=O)c2cccc3ccccc23)sc2c1CCN(CC(=O)Nc1cccc(Br)c1)C2`
[reply] 40.5
